// data source = patent US9840512B2

Tgt: human GPR40 (Homo sapiens)
Sequence (O14842 whole entry): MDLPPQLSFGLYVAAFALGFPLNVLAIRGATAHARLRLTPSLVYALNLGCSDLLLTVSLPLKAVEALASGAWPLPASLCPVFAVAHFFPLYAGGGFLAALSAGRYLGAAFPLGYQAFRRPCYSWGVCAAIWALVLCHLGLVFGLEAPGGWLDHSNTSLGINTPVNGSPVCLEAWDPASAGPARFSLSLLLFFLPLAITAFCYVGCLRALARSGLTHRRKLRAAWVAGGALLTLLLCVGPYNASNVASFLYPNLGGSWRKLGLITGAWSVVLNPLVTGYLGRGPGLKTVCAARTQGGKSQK
Measurement description: FLIPR assay (agonist-induced calcium mobilization)
Applied conditions: Human FLIPR EC50, nM or % activation (EC50 values), GPR40/CHO NFAT BLA cells
Recorded metric: EC50 (nM)

Use these answered entries as a reference point.
Cc1cccc(C)c1-c1cccc(C2CCc3cc4c(cc3O2)OC[C@H]4CC(=O)O)c1 (stereo partly shown) [Example 55]	247
Cc1cccc(C)c1-c1cccc(C2CCc3cc(CCC(=O)O)ccc3O2)c1 (single isomer, unassigned) [Example 5]	85
CC#C[C@@H](CC(=O)O)c1ccc2c(c1)CCC(c1cc(C3=CCCC3(C)C)ccc1F)O2 (mixture of isomers) [Example 33]	114
CC#CC(CC(=O)O)c1ccc2c(c1)CCC(c1cc(Br)ccc1F)O2 (mixture of isomers) [Example 28]	115

I. CC#CC(CC(=O)O)c1ccc2c(c1)CCC(c1cccc(-c3cccnc3C)c1)O2 (mixture of isomers) [Example 26]
II. Cc1ccccc1-c1ccc(F)c(C2CCc3cc4c(cc3O2)OC[C@H]4CC(=O)O)c1 (stereo partly shown) [Example 56]
III. CC#CC(CC(=O)O)c1ccc2c(c1)CCC(c1cccc(-c3ccccc3C(F)(F)F)c1)O2 (mixture of isomers) [Example 27]
Prompt: Rank ascending by EC50. Provide your answer as the labels ordered per the instruction.
Completion: III, II, I
(III: 52 nM, II: 117 nM, I: 244 nM)
